# Tested on: EBOV-GFP (recombinant Ebolavirus encoding a GFP reporter gene)
# testName: microbe, parasite or virus in culture
# Assay type: cell-based
# measurementParameters: Orthoebolavirus, Huh-7
assayReadout: IC50 (nM)
// return numeric value only (unit: nM, not printed)

Answered examples (5):
CCCCCCNCc1cc(Nc2ccnc3cc(Cl)ccc23)ccc1O | 290
CCN(CC)Cc1cc(Nc2ccnc3cc(Cl)ccc23)cc(-c2ccc(Cl)cc2)c1O | 1310
CCN(Cc1cc(Nc2ccnc3cc(Cl)ccc23)ccc1O)C(C)C | 1460
CC(C)N(C)Cc1cc(Nc2ccnc3cc(I)ccc23)ccc1O | 290
Oc1ccc(Nc2ccnc3cc(Cl)ccc23)cc1CN1CCCC1 | 1090

Would you mind telling me what IC50 value was observed for `CN(Cc1cc(Nc2ccnc3cc(I)ccc23)ccc1O)C(C)(C)C` ?
300

====

molecules and their reported CC50
# System: Huh7 cells
# testName: Cytotoxicity, CellTiter-Glo Luminescent Cell Viability Assay
# measurementParameters: Table 2, 24 h incubation

CCN(CC)Cc1cc(Nc2ccnc3cc(Cl)ccc23)ccc1O [Amodiaquine] | 79 µM
CCCCN(CCCC)Cc1cc(Nc2ccnc3cc(Cl)ccc23)ccc1O [Compound 28] | > 100 µM

Please look at the following molecule next.
GET /values?readout=CC50&system=Huh7 cells&item= CCN(CC)Cc1cc(Nc2ccnc3cc(I)ccc23)ccc1O [Compound 18]
> 100 µM

====

compounds and their reported CC50 at 24 h
# testName: Cytotoxicity, CellTiter-Glo Luminescent Cell Viability Assay
# measurementParameters: human, Huh7 cells
// return numeric value only (unit: µM, not printed)

Would you mind telling me what CC50 at 24 h value was observed for `CCCCCCNCc1cc(Nc2ccnc3cc(Cl)ccc23)ccc1O` ?
5.18

Would you mind telling me what CC50 at 24 h value was observed for `CCCCN(C)Cc1cc(Nc2ccnc3cc(I)ccc23)ccc1O` ?
66.1

Would you mind telling me what CC50 at 24 h value was observed for `CC(C)N(C)Cc1cc(Nc2ccnc3cc(Cl)ccc23)ccc1O` ?
39.2

Would you mind telling me what CC50 at 24 h value was observed for `CC(C)N(C)Cc1cc(Nc2ccnc3cc(I)ccc23)ccc1O` ?
38.4

====

# testName: Cytotoxicity, CellTiter-Glo Luminescent Cell Viability Assay
# measurementParameters: human, Huh7 cells
compounds and their reported CC50 at 24 h
// return numeric value only (unit: µM, not printed)

Oc1ccc(Nc2ccnc3cc(I)ccc23)cc1CN1CCCC1 | 35.3

Please look at the following compound next.
Would you mind telling me what CC50 at 24 h value was observed for `CCN(Cc1cc(Nc2ccnc3cc(Cl)ccc23)ccc1O)C(C)C` ?
60.5

====

compounds and their reported CC50 at 24 h
# testName: Cytotoxicity, CellTiter-Glo Luminescent Cell Viability Assay
# measurementParameters: human, Huh7 cells

CCCN(CC)Cc1cc(Nc2ccnc3cc(I)ccc23)ccc1O [Compound 40] | > 100 µM

Would you mind telling me what CC50 at 24 h value was observed for CCCCN(CC)Cc1cc(Nc2ccnc3cc(I)ccc23)ccc1O [Compound 41] ?
60.4 µM

Would you mind telling me what CC50 at 24 h value was observed for CCCN(CC)Cc1cc(Nc2ccnc3cc(Cl)ccc23)ccc1O [Compound 29] ?
> 100 µM

Would you mind telling me what CC50 at 24 h value was observed for CN(Cc1cc(Nc2ccnc3cc(Cl)ccc23)ccc1O)C(C)(C)C [Compound 15] ?
41.8 µM

Would you mind telling me what CC50 at 24 h value was observed for CCN(CC)Cc1cc(Nc2ccnc3cc(I)ccc23)ccc1O [Compound 18] ?
> 100 µM

Would you mind telling me what CC50 at 24 h value was observed for Oc1ccc(Nc2ccnc3cc(I)ccc23)cc1CN1CCOCC1 [Compound 44] ?
> 100 µM

Would you mind telling me what CC50 at 24 h value was observed for CC(C)(C)NCc1cc(Nc2ccnc3cc(Cl)ccc23)ccc1O [Compound 9] ?
26.1 µM

Would you mind telling me what CC50 at 24 h value was observed for Oc1ccc(Nc2ccnc3cc(I)ccc23)cc1CN1CCSCC1 [Compound 45] ?
> 100 µM

====

# System: EBOV-GFP (recombinant Ebolavirus encoding a GFP reporter gene)
# testName: microbe, parasite or virus in culture
# Type: cell-based
# measurementParameters: Orthoebolavirus, Huh-7
Binary call on IC50 with cut-off 0.7 µM: strictly below means YES, and equality or higher means NO.

Example cases with answers are listed next.
CCCN(C)Cc1cc(Nc2ccnc3cc(I)ccc23)ccc1O | YES
CCCN(C)Cc1cc(Nc2ccnc3cc(Cl)ccc23)ccc1O | NO

Consider the compound `CCCCN(C)Cc1cc(Nc2ccnc3cc(Cl)ccc23)ccc1O` . Is its IC50 strictly less than 0.7 µM?
NO

Consider the compound `CCCCCCN(C)Cc1cc(Nc2ccnc3cc(I)ccc23)ccc1O` . Is its IC50 strictly less than 0.7 µM?
YES

====

compounds and their reported pIC50
# Tested on: EBOV-GFP (recombinant Ebolavirus encoding a GFP reporter gene)
# testName: microbe, parasite or virus in culture
# Format: cell-based
# measurementParameters: Orthoebolavirus, Huh-7
Scale: negative log10 of molar concentration, which is what pIC50 denotes.

Answered examples (5):
CCCCCCCCN(C)Cc1cc(Nc2ccnc3cc(I)ccc23)ccc1O | 6.59
CCN(C)Cc1cc(Nc2ccnc3cc(I)ccc23)ccc1O | 6.21
CCN(CC)Cc1cc(Nc2ccnc3cc(I)ccc23)ccc1O | 6.19
CCCCN(CCCC)Cc1cc(Nc2ccnc3cc(Cl)ccc23)ccc1O | 6.14
CCCN(CC)Cc1cc(Nc2ccnc3cc(I)ccc23)ccc1O | 6.44

Please look at the following compound next.
GET /values?readout=pIC50&system=EBOV-GFP (recombinant Ebolavirus encoding a GFP reporter gene)&item= `CCCN(CCC)Cc1cc(Nc2ccnc3cc(Cl)ccc23)ccc1O`
6.03

====

# Test system: EBOV-GFP (recombinant Ebolavirus encoding a GFP reporter gene)
# testName: microbe, parasite or virus in culture
# Type: cell-based
# measurementParameters: Orthoebolavirus, Huh-7
Binary call on IC50 with cut-off 400 nM: strictly below means MET, and equality or higher means NOT MET.

Example cases with answers are listed next.
Oc1ccc(Nc2ccnc3cc(I)ccc23)cc1CN1CCSCC1 | NOT MET
CCCCN(C)Cc1cc(Nc2ccnc3cc(I)ccc23)ccc1O | NOT MET
CC(C)N(C)Cc1cc(Nc2ccnc3cc(Cl)ccc23)ccc1O | NOT MET
CC(C)(C)NCc1cc(Nc2ccnc3cc(Cl)ccc23)ccc1O | NOT MET

Consider the compound `CCCCCN(C)Cc1cc(Nc2ccnc3cc(I)ccc23)ccc1O` . Is its IC50 strictly less than 400 nM?
MET

Consider the compound `Oc1ccc(Nc2ccnc3cc(I)ccc23)cc1CN1CCCC1` . Is its IC50 strictly less than 400 nM?
NOT MET

Consider the compound `Oc1ccc(Nc2ccnc3cc(I)ccc23)cc1CN1CCCCC1` . Is its IC50 strictly less than 400 nM?
MET

Consider the compound `CN(Cc1cc(Nc2ccnc3cc(Cl)ccc23)ccc1O)C(C)(C)C` . Is its IC50 strictly less than 400 nM?
NOT MET

====

# Tested on: EBOV-GFP (recombinant Ebolavirus encoding a GFP reporter gene)
# testName: microbe, parasite or virus in culture
# Assay type: cell-based
# measurementParameters: Orthoebolavirus, Huh-7
compounds and their reported IC50

Would you mind telling me what IC50 value was observed for Oc1ccc(Nc2ccnc3cc(I)ccc23)cc1CN1CCOCC1 [Compound 44] ?
1590 nM

Would you mind telling me what IC50 value was observed for CCN(CCO)Cc1cc(Nc2ccnc3cc(I)ccc23)ccc1O [Compound 39] ?
410 nM

Would you mind telling me what IC50 value was observed for CCCN(CC)Cc1cc(Nc2ccnc3cc(Cl)ccc23)ccc1O [Compound 29] ?
1390 nM

====

# testName: Cytotoxicity, CellTiter-Glo Luminescent Cell Viability Assay
# measurementParameters: human, Huh7 cells
assayReadout: CC50 at 24 h

Answered examples (2):
CCCN(C)Cc1cc(Nc2ccnc3cc(I)ccc23)ccc1O | > 100 µM
CCN(C)Cc1cc(Nc2ccnc3cc(I)ccc23)ccc1O | > 100 µM

Please look at the following molecule next.
Would you mind telling me what CC50 at 24 h value was observed for `CCCCCCN(C)Cc1cc(Nc2ccnc3cc(I)ccc23)ccc1O` ?
> 100 µM

====

compounds and their reported CC50 at 24 h
# testName: Cytotoxicity, CellTiter-Glo Luminescent Cell Viability Assay
# measurementParameters: human, Huh7 cells

Answered examples (4):
CN(Cc1cc(Nc2ccnc3cc(I)ccc23)ccc1O)C(C)(C)C [Compound 33] | 32.3 µM
CCN(CC)Cc1cc(Nc2ccnc3cc(Cl)ccc23)cc(-c2ccc(Cl)cc2)c1O [Compound 20] | 19.5 µM
CCCCCCCCN(C)Cc1cc(Nc2ccnc3cc(I)ccc23)ccc1O [Compound 38] | > 100 µM
Oc1ccc(Nc2ccnc3cc(I)ccc23)cc1CN1CCCCC1 [Compound 43] | > 100 µM

Would you mind telling me what CC50 at 24 h value was observed for CCCCN(CCCC)Cc1cc(Nc2ccnc3cc(Cl)ccc23)ccc1O [Compound 28] ?
> 100 µM

Would you mind telling me what CC50 at 24 h value was observed for CCCN(CCC)Cc1cc(Nc2ccnc3cc(Cl)ccc23)ccc1O [Compound 26] ?
> 100 µM

Would you mind telling me what CC50 at 24 h value was observed for CCCCCN(C)Cc1cc(Nc2ccnc3cc(I)ccc23)ccc1O [Compound 36] ?
> 100 µM

Would you mind telling me what CC50 at 24 h value was observed for CCCCN(C)Cc1cc(Nc2ccnc3cc(Cl)ccc23)ccc1O [Compound 25] ?
65.9 µM

Would you mind telling me what CC50 at 24 h value was observed for CN(C)Cc1cc(Nc2ccnc3cc(I)ccc23)ccc1O [Compound 30] ?
> 100 µM

Would you mind telling me what CC50 at 24 h value was observed for Oc1ccc(Nc2ccnc3cc(Cl)ccc23)cc1CN1CCCC1 [Compound 21] ?
33.2 µM

Would you mind telling me what CC50 at 24 h value was observed for CCN(CCO)Cc1cc(Nc2ccnc3cc(I)ccc23)ccc1O [Compound 39] ?
> 100 µM

Would you mind telling me what CC50 at 24 h value was observed for CCCN(C)Cc1cc(Nc2ccnc3cc(Cl)ccc23)ccc1O [Compound 14] ?
> 100 µM
